Attribute: inhibition at 0.1 ppm
- tested-on: AtPPO1 S305L Y361C L362F Y426M L479M (SEQ ID NO.134) (Arabidopsis thaliana, UniProt P55826, L479M/S305L/Y361C/Y362F/Y426M)
- assay-remarks: fluorescent Protoporphyrinogen Oxidase assay, crude extract
- Assay type: biochemical
- stated-conditions: read-out: percentage inhibition
Just the number please, in %, no unit attached.

Reference set, count: 4
Prompt: So what does the record say about inhibition at 0.1 ppm for CC(C)N(C)S(=O)(=O)NC(=O)c1cc(-n2c(=O)cc(C(F)(F)F)n(C)c2=O)c(F)cc1Cl [Herbicide E, saflufenacil] ?
Completion: 0

Prompt: So what does the record say about inhibition at 0.1 ppm for CCOC(=O)C1(C)CC(c2cc(-n3c(=O)cc(C(F)(F)F)n(C)c3=O)c(F)cc2Cl)=NO1 (centres unmarked) [Herbicide C] ?
Completion: 19

Prompt: So what does the record say about inhibition at 0.1 ppm for C#CCN1C(=O)C(F)(F)Oc2cc(F)c(-n3c(=O)n(C)c(=S)n(C)c3=O)cc21 [Herbicide B, trifludimoxazin] ?
Completion: 100

Prompt: So what does the record say about inhibition at 0.1 ppm for CCOC(=O)[C@]1(C)CC(c2cc(-n3c(=O)n(C)c(=S)n(C)c3=O)c(F)cc2Cl)=NO1 [Herbicide D] ?
Completion: 0

Next item in the queue.
Prompt: So what does the record say about inhibition at 0.1 ppm for CCOC(=O)COc1ncccc1Oc1cc(-n2c(=O)cc(C(F)(F)F)n(C)c2=O)c(F)cc1Cl [Herbicide A, epyrifenacil] ?
Completion: 0

----------
- tested-on: AtPPO1 Y361D V365L (SEQ ID NO.135) (Arabidopsis thaliana, UniProt P55826, V365L/Y361D)
- Construct: made in house; host or cells: E. coli BL21 (DE3) hemG, crude extract
- Sequence (P55826 35-537 Y361D/V365L): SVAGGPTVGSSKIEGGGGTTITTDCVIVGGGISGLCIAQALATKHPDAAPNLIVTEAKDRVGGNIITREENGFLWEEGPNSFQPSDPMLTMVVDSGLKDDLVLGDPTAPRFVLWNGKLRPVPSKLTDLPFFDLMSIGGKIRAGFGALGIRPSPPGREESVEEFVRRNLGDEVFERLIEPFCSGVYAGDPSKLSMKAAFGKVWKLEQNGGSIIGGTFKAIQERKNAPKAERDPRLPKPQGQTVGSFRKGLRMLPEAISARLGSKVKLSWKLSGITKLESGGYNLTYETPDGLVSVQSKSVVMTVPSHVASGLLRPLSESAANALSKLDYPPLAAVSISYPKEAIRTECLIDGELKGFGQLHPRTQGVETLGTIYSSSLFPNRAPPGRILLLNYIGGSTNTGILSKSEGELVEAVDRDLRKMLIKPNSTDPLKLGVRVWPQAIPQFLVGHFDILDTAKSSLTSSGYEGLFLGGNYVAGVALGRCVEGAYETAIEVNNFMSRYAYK
- assay-remarks: fluorescent Protoporphyrinogen Oxidase assay, crude extract
- Type: biochemical
- stated-conditions: read-out: percentage inhibition
Attribute: inhibition at 100 ppm
Just the number please, in %, no unit attached.

Reference set, count: 4
Prompt: So what does the record say about inhibition at 100 ppm for C#CCN1C(=O)C(F)(F)Oc2cc(F)c(-n3c(=O)n(C)c(=S)n(C)c3=O)cc21 [Herbicide B, trifludimoxazin] ?
Completion: 100

Prompt: So what does the record say about inhibition at 100 ppm for CC(C)N(C)S(=O)(=O)NC(=O)c1cc(-n2c(=O)cc(C(F)(F)F)n(C)c2=O)c(F)cc1Cl [Herbicide E, saflufenacil] ?
Completion: 100

Prompt: So what does the record say about inhibition at 100 ppm for CCOC(=O)[C@]1(C)CC(c2cc(-n3c(=O)n(C)c(=S)n(C)c3=O)c(F)cc2Cl)=NO1 [Herbicide D] ?
Completion: 100

Prompt: So what does the record say about inhibition at 100 ppm for CCOC(=O)C1(C)CC(c2cc(-n3c(=O)cc(C(F)(F)F)n(C)c3=O)c(F)cc2Cl)=NO1 (centres unmarked) [Herbicide C] ?
Completion: 100

Next item in the queue.
Prompt: So what does the record say about inhibition at 100 ppm for CCOC(=O)COc1ncccc1Oc1cc(-n2c(=O)cc(C(F)(F)F)n(C)c2=O)c(F)cc1Cl [Herbicide A, epyrifenacil] ?
Completion: 96
